Values from ChEMBL document CHEMBL3885861

Organism: Rattus norvegicus
experimentalDetails: Open TG-GATES - Regimen: Daily Repeat
Assay type: toxicity, organism-based, Sprague-Dawley
Set-up: regimen Daily Repeat, gender Male, age 6 weeks
measurementConditions: in vivo, po, 0 mg/kg, […], tissue Blood, route gavage, dose level Control, time 28 day
So I've got a bunch of compounds here, and I need their Ht values.
Give bare numbers, in %.

As a guide, the following entries are already answered.
compound: NC(N)=Nc1nc(CSCCC(N)=NS(N)(=O)=O)cs1
testReadout: Ht
numericValue: 43.5
//
compound: CCOc1ccc(NC(=O)CC(C)O)cc1 (stereo not drawn)
testReadout: Ht
numericValue: 44
//
compound: CN(C)CCN(Cc1cccs1)c1ccccn1
testReadout: Ht
numericValue: 42.7
//
compound: NNC(=O)c1ccncc1
testReadout: Ht
numericValue: 46
//
compound: COc1ccc2[nH]c([S+]([O-])Cc3ncc(C)c(OC)c3C)nc2c1 (stereo not drawn)
testReadout: Ht
numericValue: 45

Required: Ht, one value per compound below.
1. CC1=C(/C=C/C(C)=C/C=C/C(C)=C/CO)C(C)(C)CCC1
2. COC1=CC(=O)C[C@@H](C)[C@]12Oc1c(Cl)c(OC)cc(OC)c1C2=O
3. CC(C)OC(=O)C(C)(C)Oc1ccc(C(=O)c2ccc(Cl)cc2)cc1 [FENOFIBRATE]
4. CCCNC(=O)NS(=O)(=O)c1ccc(Cl)cc1 [CHLORPROPAMIDE]
5. CN(C)CCCN1c2ccccc2CCc2ccccc21
6. CCOC(=O)CCC(=O)O[C@H]1[C@H](O[C@@H]2[C@@H](C)[C@H](O[C@H]3C[C@@](C)(OC)[C@@H](O)[C@H](C)O3)[C@@H](C)C(=O)O[C@H](CC)[C@@](C)(O)[C@H](O)[C@@H](C)C(=O)[C@H](C)C[C@@]2(C)O)O[C@H](C)C[C@@H]1N(C)C [ERYTHROMYCIN ETHYLSUCCINATE]
7. O=C(CCCN1CCC(O)(c2ccc(Cl)cc2)CC1)c1ccc(F)cc1
8. CN1C(=O)CN=C(c2ccccc2)c2cc(Cl)ccc21

Reply:
[42.6, 44.8, 45.9, 45.3, 44.1, 44, 45.3, 47.5]

----------
Species on record: Rattus norvegicus
experimentalDetails: Open TG-GATES - Regimen: Single
Format: toxicity, organism-based, Sprague-Dawley
Parameters: regimen Single, gender Male, age 6 weeks
measurementConditions: in vivo, po, 0 mg/kg, 6 h, tissue Plasma, route gavage, dose level Control
Note to self: ALP under 1000 IU/L means fulfilled, ties and anything higher get not fulfilled.

molecule: CCOc1ccc(NC(=O)CC(C)O)cc1 (stereo unspecified)
categoryLabel: not fulfilled
//
molecule: CN1C(=O)CN=C(c2ccccc2)c2cc(Cl)ccc21
categoryLabel: fulfilled
//
molecule: COc1ccc2[nH]c([S+]([O-])Cc3ncc(C)c(OC)c3C)nc2c1 (stereo unspecified)
categoryLabel: fulfilled
//
molecule: Cc1ccc(C)c(OCCCC(C)(C)C(=O)O)c1
categoryLabel: not fulfilled

Query: Quick check: does CCOC(=O)CCC(=O)O[C@H]1[C@H](O[C@@H]2[C@@H](C)[C@H](O[C@H]3C[C@@](C)(OC)[C@@H](O)[C@H](C)O3)[C@@H](C)C(=O)O[C@H](CC)[C@@](C)(O)[C@H](O)[C@@H](C)C(=O)[C@H](C)C[C@@]2(C)O)O[C@H](C)C[C@@H]1N(C)C [ERYTHROMYCIN ETHYLSUCCINATE] have ALP under 1000 IU/L?
Reply: not fulfilled

Query: Hello, I'm reviewing records and need to know if ALP of O=C(CCCN1CCC(O)(c2ccc(Cl)cc2)CC1)c1ccc(F)cc1 is below 1000 IU/L. Could you check?
Reply: fulfilled

Query: Does the reported ALP of the following molecule sit strictly below 1000 IU/L? COC1=CC(=O)C[C@@H](C)[C@]12Oc1c(Cl)c(OC)cc(OC)c1C2=O
Reply: not fulfilled

Query: Lab note: confirm whether the reported ALP for this molecule is below 1000 IU/L, equality not counting. molecule: CN(C)CCCN1c2ccccc2CCc2ccc(Cl)cc21
Reply: not fulfilled

Query: hey, is ALP for COc1cc2c(c(OC)c1OC)-c1ccc(OC)c(=O)cc1[C@@H](NC(C)=O)CC2 lower than 1000 IU/L or not?
Reply: fulfilled

Query: Does the reported ALP of the following molecule sit strictly below 1000 IU/L? CN(C)CCCN1c2ccccc2CCc2ccccc21
Reply: not fulfilled

Query: Identify whether the molecule CC(C)OC(=O)C(C)(C)Oc1ccc(C(=O)c2ccc(Cl)cc2)cc1 [FENOFIBRATE] records ALP below 1000 IU/L.
Reply: not fulfilled

Query: Quick check: ALP of CN(C)CCN(Cc1cccs1)c1ccccn1 under 1000 IU/L?
Reply: not fulfilled

Query: API: query returns whether the molecule falls strictly under 1000 IU/L in ALP. Query: CCCNC(=O)NS(=O)(=O)c1ccc(Cl)cc1 [CHLORPROPAMIDE]
Reply: not fulfilled

Query: is_below(ALP, 1000 IU/L) for CC1=C(/C=C/C(C)=C/C=C/C(C)=C/CO)C(C)(C)CCC1 ?
Reply: not fulfilled

Query: Input NC(N)=Nc1nc(CSCCC(N)=NS(N)(=O)=O)cs1 ; condition: ALP strictly below 1000 IU/L. Does it hold?
Reply: fulfilled

----------
Task for the reader: assign each of the following compounds its reported TBIL.
Species: Rattus norvegicus
experimentalDetails: Open TG-GATES - Regimen: Daily Repeat
Format: toxicity, organism-based, Sprague-Dawley
Design: regimen Daily Repeat, gender Male, age 6 weeks
measurementConditions: in vivo, po, 10 mg/kg, […], tissue Plasma, route gavage, dose level Low, time 14 day
Just so you know, I need the unit written after the number.

Some compounds with known TBIL results, for comparison:
compound: CC(C)OC(=O)C(C)(C)Oc1ccc(C(=O)c2ccc(Cl)cc2)cc1 [FENOFIBRATE]
result: 0.03 mg/dL
--
compound: CN(C)CCN(Cc1cccs1)c1ccccn1
result: 0.012 mg/dL
--
compound: CN(C)CCCN1c2ccccc2CCc2ccccc21 [IMIPRAMINE]
result: 0.048 mg/dL

Query: Dear colleague, I am looking for the recorded TBIL of the following compound: CC1=C(/C=C/C(C)=C/C=C/C(C)=C/CO)C(C)(C)CCC1 [RETINOL]
Reply: 0.004 mg/dL

----------
Species: Rattus norvegicus
experimentalDetails: Open TG-GATES - Regimen: Single
Format: toxicity, organism-based, Sprague-Dawley
Set-up: regimen Single, gender Male, age 6 weeks
measurementConditions: in vivo, po, 300 mg/kg, 3 h, tissue Plasma, route gavage, dose level Middle
testReadout: LDH (IU/L)
Answers are plain numbers, in IU/L.

# count of solved cases: 2
molecule: COc1ccc2[nH]c([S+]([O-])Cc3ncc(C)c(OC)c3C)nc2c1 (centres undefined)
LDH, IU/L: 202
--
molecule: COC1=CC(=O)C[C@@H](C)[C@]12Oc1c(Cl)c(OC)cc(OC)c1C2=O
LDH, IU/L: 113.8

State the recorded LDH for every item in the following list.
1. CCOC(=O)CCC(=O)O[C@H]1[C@H](O[C@@H]2[C@@H](C)[C@H](O[C@H]3C[C@@](C)(OC)[C@@H](O)[C@H](C)O3)[C@@H](C)C(=O)O[C@H](CC)[C@@](C)(O)[C@H](O)[C@@H](C)C(=O)[C@H](C)C[C@@]2(C)O)O[C@H](C)C[C@@H]1N(C)C [ERYTHROMYCIN ETHYLSUCCINATE]
2. NC(N)=Nc1nc(CSCCC(N)=NS(N)(=O)=O)cs1

Reply:
141
230

----------
Species on record: Rattus norvegicus
experimentalDetails: Open TG-GATES - Regimen: Single
Format: toxicity, organism-based, Sprague-Dawley
Parameters: regimen Single, gender Male, age 6 weeks
measurementConditions: in vivo, po, 100 mg/kg, 24 h, tissue Plasma, route gavage, dose level High
For each entry below, report its AST value.
Answers are plain numbers, in IU/L.

smilesInput: CN(C)CCCN1c2ccccc2CCc2ccc(Cl)cc21
numericValue: 69.8

List the reported AST of each molecule below.
1. CN(C)CCN(Cc1cccs1)c1ccccn1
2. CN(C)CCCN1c2ccccc2CCc2ccccc21
3. CC1=C(/C=C/C(C)=C/C=C/C(C)=C/CO)C(C)(C)CCC1

Reply:
[109.6, 61, 79]

----------
Exercise: for every item that follows, state its recorded TBIL.
Species: Rattus norvegicus
experimentalDetails: Open TG-GATES - Regimen: Daily Repeat
Assay type: toxicity, organism-based, Sprague-Dawley
Design: regimen Daily Repeat, gender Male, age 6 weeks
measurementConditions: in vivo, po, 100 mg/kg, 72 h, tissue Plasma, route gavage, dose level Low, time 3 day
One number for each entry, in mg/dL.

Field: example entries. Status: answers known.
molecule: NC(N)=Nc1nc(CSCCC(N)=NS(N)(=O)=O)cs1
TBIL [mg/dL]: 0.1
--
molecule: CCOc1ccc(NC(=O)CC(C)O)cc1 (stereo not given)
TBIL [mg/dL]: 0.044
--
molecule: CCOC(=O)CCC(=O)O[C@H]1[C@H](O[C@@H]2[C@@H](C)[C@H](O[C@H]3C[C@@](C)(OC)[C@@H](O)[C@H](C)O3)[C@@H](C)C(=O)O[C@H](CC)[C@@](C)(O)[C@H](O)[C@@H](C)C(=O)[C@H](C)C[C@@]2(C)O)O[C@H](C)C[C@@H]1N(C)C [ERYTHROMYCIN ETHYLSUCCINATE]
TBIL [mg/dL]: 0.024
--
molecule: COC1=CC(=O)C[C@@H](C)[C@]12Oc1c(Cl)c(OC)cc(OC)c1C2=O
TBIL [mg/dL]: 0.1

# ---- query molecule ----
Query: // lookup TBIL for COc1ccc2[nH]c([S+]([O-])Cc3ncc(C)c(OC)c3C)nc2c1 (stereo not given)
Reply: 0.1
